- tgt: CypA^V6T (UniProt P62937 1-165, V6T)
- Sequence (P62937 whole entry V6T): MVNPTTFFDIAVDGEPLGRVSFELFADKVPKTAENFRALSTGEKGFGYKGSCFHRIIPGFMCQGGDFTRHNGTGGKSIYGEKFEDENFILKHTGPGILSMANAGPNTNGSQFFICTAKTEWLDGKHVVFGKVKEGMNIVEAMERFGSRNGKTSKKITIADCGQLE
- assay_overview: NMR titration
test_readout: Kd (µM)
The response must be a number in µM with no trailing unit.

Query block: // lookup Kd for GSFGPDLRAGD [FGP peptide]
Result block: 48
